# TARGET_OR_SYSTEM: human ether-à-go-go-related gene (hERG) potassium channel (human);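 further: peak tail current of the secondary pulse compared with the same well before compound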
# Sequence (Q12809 whole entry, looked up): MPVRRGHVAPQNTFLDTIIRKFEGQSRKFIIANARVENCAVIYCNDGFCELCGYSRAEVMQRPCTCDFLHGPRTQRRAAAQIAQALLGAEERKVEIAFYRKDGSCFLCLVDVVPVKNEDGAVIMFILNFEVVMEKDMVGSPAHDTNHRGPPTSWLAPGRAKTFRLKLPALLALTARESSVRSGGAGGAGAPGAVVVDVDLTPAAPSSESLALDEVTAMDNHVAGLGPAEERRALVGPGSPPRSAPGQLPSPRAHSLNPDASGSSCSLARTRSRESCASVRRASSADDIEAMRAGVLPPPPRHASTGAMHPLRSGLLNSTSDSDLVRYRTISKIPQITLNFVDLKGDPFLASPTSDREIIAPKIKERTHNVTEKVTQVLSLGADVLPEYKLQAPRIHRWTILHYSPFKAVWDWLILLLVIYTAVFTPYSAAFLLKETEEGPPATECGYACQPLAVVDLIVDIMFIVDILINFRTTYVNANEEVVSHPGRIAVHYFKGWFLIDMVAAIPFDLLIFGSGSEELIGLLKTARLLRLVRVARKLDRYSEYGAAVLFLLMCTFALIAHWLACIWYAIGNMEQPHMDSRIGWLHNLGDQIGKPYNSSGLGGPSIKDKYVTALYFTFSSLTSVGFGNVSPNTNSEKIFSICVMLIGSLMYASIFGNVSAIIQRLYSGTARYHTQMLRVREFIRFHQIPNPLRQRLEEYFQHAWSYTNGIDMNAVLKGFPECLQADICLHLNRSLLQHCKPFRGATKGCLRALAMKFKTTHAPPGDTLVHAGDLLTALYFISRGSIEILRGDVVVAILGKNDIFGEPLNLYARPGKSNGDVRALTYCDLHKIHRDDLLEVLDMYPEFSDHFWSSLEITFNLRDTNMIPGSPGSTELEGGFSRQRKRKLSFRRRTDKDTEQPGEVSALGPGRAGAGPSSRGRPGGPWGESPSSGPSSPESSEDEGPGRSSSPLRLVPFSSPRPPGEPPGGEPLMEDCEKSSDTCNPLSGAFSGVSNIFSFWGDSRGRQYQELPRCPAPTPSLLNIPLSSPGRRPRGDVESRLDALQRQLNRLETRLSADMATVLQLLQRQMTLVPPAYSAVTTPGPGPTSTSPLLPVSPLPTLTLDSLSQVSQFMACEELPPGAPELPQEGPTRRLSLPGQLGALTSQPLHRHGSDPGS
# EXPERIMENT: primary screen, population patch clamp on CHO cells stably expressing hERG; higher = less effect of the substance
The campaign covered roughly 310,000 compounds. About 14,000 (4.5%) showed an effect of 50% or more. The effect is printed as a negative number. This excerpt belongs to a sample that is enriched for strong results.
# hERG current change (%, negative = inhibition) at 10uM values compiled below
Numeric answer only, unit % assumed.

>>> reported("Cc1cccc(N2CCN(C(=O)c3ccncc3)CC2)c1C")
-37

Ask: Any idea what hERG current change (%, negative = inhibition) at 10uM came out for C/C(=N\NC(=S)Nc1cccc(C)c1)c1ccco1 on human ether-à-go-go-related gene (hERG) potassium channel (human)?
Reply: -6.35
